experiment-summary: inhibitors of mutant huntingtin aggregation, primary screen, imaging, exon1htt(103Q)mCFP cells, high-content imaging (AID 483);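 also: compound exposure lasted 3 days before fixation; percent of the per-plate median nuclei count of sample wells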
stated-conditions: exon1htt(103Q)mCFP cell line, aggregate imaging, at 2 µM; measured here: cell count, toxicity
Each entry below carries its recorded nuclei count.
Respond with the bare value in %.

These solved cases illustrate the format of a correct answer.
compound="CCCCSCCCNC(=O)CS(=O)Cc1nc(-c2cccc(C)c2)oc1C (stereo not given)" unit_of_measure=% experimental_result=107
compound=CSc1ccccc1NC(=O)c1cnc2n(c1=O)CCS2 unit_of_measure=% experimental_result=111
compound="CCc1ccc(C2CC(c3ccccc3)n3ncnc3N2)cc1 (stereo not given)" unit_of_measure=% experimental_result=72
compound=CCOC(=O)c1cccc(NC(=O)CNS(=O)(=O)c2cccs2)c1 unit_of_measure=% experimental_result=108
compound="CCC1C(=O)N=C(SCC(=O)Nc2cccc3ccccc23)NC1=O (stereo not given)" unit_of_measure=% experimental_result=101
compound=COC(=O)c1sc(S(=O)(=O)NCc2cccs2)c(C(=O)OC)c1C unit_of_measure=% experimental_result=85.3
compound=Cc1cc(C)n(-c2cc(N3CCOCC3)ncn2)n1 unit_of_measure=% experimental_result=89.8
compound=CCc1nc(NCCCN2CCOCC2)c2oc3ccccc3c2n1 unit_of_measure=% experimental_result=106

get_value(item= Cc1c(C(=O)OCc2ccccc2)[nH]c2c1C(=O)CC(c1ccco1)C2 (stereo not given) , readout=nuclei count) returns 3.7

get_value(item= NC(=O)COC(=O)c1ccc(S(=O)(=O)N2CCCCCC2)cc1 , readout=nuclei count) returns 104

get_value(item= CCOC(=O)C1=C(C)N=C2SCCC(=O)N2C1c1cc(Br)ccc1OC (stereo not given) , readout=nuclei count) returns 108

get_value(item= CC(C)(C)OC(=O)N1CC=C2C(C#N)=C(N)C(C#N)(C#N)C(c3cccs3)C2C1 (stereo not given) , readout=nuclei count) returns 102

get_value(item= CN(Cc1ccccc1)c1nc2c(c(=O)[nH]c(=O)n2C)n1Cc1ccccc1Cl , readout=nuclei count) returns 108

====

experiment-summary: inhibitors of poly I:C-induced TLR3 signaling, primary screen, cell-based, poly I:C stimulus, luciferase, 10K MLSCN set (AID 602277)
stated-conditions: HEK293-TLR3 RL24 IRF3 luciferase reporter, at 10 µM
Calls of active or inactive are those of the source.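 Rule for the calls: active = inhibition of the reporter signal at or above 50%; inactive = inhibition below 50%.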
// allowed return values: True (active), False (inactive)

// known answers, use as guide
compound=O=C(CS(=O)(=O)c1cn(Cc2ccc(Cl)cc2)c2ccccc12)N1CCCC1 assigned_class=False
compound="Cc1nc2ccccc2c2oc(C(=O)NCCN3CCCCC3C)cc12 (stereo unspecified)" assigned_class=True
compound="COc1ccc(N2CCN(C(=O)C(OC(C)=O)c3ccccc3)CC2)cc1 (stereo unspecified)" assigned_class=False
compound=CCCc1cc(-n2ccnc2)n2c(nc3ccccc32)c1C#N assigned_class=False
compound=O=C(CN(C1CCCCC1)S(=O)(=O)c1ccccc1)NCc1cccnc1 assigned_class=False

[Q] Short answer needed: outcome of this test for COc1cc(C2CC(=O)NC3=C2C(=O)CC(C)(C)C3)ccc1O (stereo unspecified) ?
[A] False

[Q] Short answer needed: outcome of this test for Cc1ccc(-c2noc(CCC(=O)NCC3CCN(Cc4cccc(C)c4)CC3)n2)cc1 ?
[A] False

[Q] Short answer needed: outcome of this test for CC1(C)NC(=O)N(CCOc2cccc(Cl)c2Cl)C1=O ?
[A] False

[Q] Short answer needed: outcome of this test for Cc1coc2cc3oc(=O)c4c(c3cc12)CCC4 ?
[A] False

[Q] Short answer needed: outcome of this test for Cc1cc(C)n(-c2cc(N3CCOCC3)ncn2)n1 ?
[A] False

[Q] Short answer needed: outcome of this test for O=C1c2ccccc2C(=O)N1CC(O)Cn1nnc2ccccc21 (stereo unspecified) ?
[A] False

[Q] Short answer needed: outcome of this test for CC(NC(=O)Nc1ccccc1)C(c1cccs1)N1CCOCC1 (stereo unspecified) ?
[A] False

[Q] Short answer needed: outcome of this test for O=C(OCc1ccc2c(c1)OCO2)c1ccc(S(=O)(=O)N2CCCCC2)cc1 ?
[A] False

[Q] Short answer needed: outcome of this test for COCCNC(=O)c1cc(-c2cccs2)on1 ?
[A] False

[Q] Short answer needed: outcome of this test for CCOc1ccc(C(=O)N2CCN(c3ccccc3)CC2)cc1OCC ?
[A] False
